So I've got a bunch of compounds here, and I need their inhibition values.
- ASSAY_TARGET: Ribosomal protein S6 kinase alpha-3 (Homo sapiens)
- CONDITIONS_USED: at 1 µM
- Description: GSK_PKIS: RSK2 mean inhibition at 1 uM [Nanosyn]
Only the number, expressed in %, is required.

In: Item under review: CCn1c(-c2nonc2N)nc2c(C#CC(C)(C)O)nc(OCCNC)cc21 . Reported inhibition?
Out: 5.57

In: Then CN(c1ccc(NC(=O)Nc2ccc(OC(F)(F)F)cc2)cc1)c1ccnc(Nc2cccc(S(N)(=O)=O)c2)n1 ?
Out: -0.29

In: What do you get for NC(=O)c1cccc(Nc2nccc(Nc3cccc(F)c3)n2)c1 ?
Out: 1.16

In: How about this compound: Nc1nccc(-c2c(-c3ccc(F)cc3)nn3cc(C(F)(F)F)ccc23)n1
Out: -1.02

In: Thanks! And Cc1cc(O)cc(C)c1/C=C/c1cncc(C(=O)N(C)C)c1 ?
Out: 2.65

In: Try this compound next: O=S(=O)(CCOCc1ccc(-c2ccc3ncnc(Nc4ccc(OCc5cccc(F)c5)c(Cl)c4)c3c2)o1)c1ccccc1
Out: 1.23
